B1: Ankyrin-3, residues 4094 to 4171; numbered along this chain, Q12955 (parent)
chain: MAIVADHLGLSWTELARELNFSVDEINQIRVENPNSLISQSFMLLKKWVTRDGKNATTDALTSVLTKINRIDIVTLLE

Variants of: B1
Assay: abundance fitness (aPCA) (normalised: wild type 0, dead -1); higher = more abundant; growth selection in yeast, the domain comes from the species named
Settings: Homo sapiens
observation type: abundance fitness

variant string: V74P
reading: -0.86
//
variant string: I68M
reading: -0.244
//
variant string: L15F
reading: -0.149
//
variant string: K47W
reading: -0.124
//
variant string: R17K
reading: 0.143
//
variant string: N69P
reading: -0.811
//
variant string: V49Q
reading: 0.07
//
variant string: E14M
reading: -0.185
//
variant string: P34K
reading: -0.561
//
variant string: L65G
reading: -0.825
//
variant string: I71T
reading: -0.016
//
variant string: N27H
reading: -0.06
//
variant string: F21Q
reading: -0.694
//
variant string: R51A
reading: -0.78
//
variant string: L19I
reading: -0.333
//
variant string: Q40N
reading: -1.03
//
variant string: E18M
reading: -0.339
//
variant string: A5R
reading: -0.498
//
variant string: K47L
reading: -0.099
//
variant string: E25V
reading: -0.344
//
variant string: L37M
reading: -0.014
//
variant string: L8F
reading: -0.463
//
variant string: M1K
reading: -0.421
//
variant string: V64D
reading: -0.858
//
variant string: S41A
reading: 0.032
//
variant string: S63R
reading: -0.004
//
variant string: N35I
reading: -0.337
//
variant string: M43L
reading: -0.152
//
variant string: E18Q
reading: -0.388
//
variant string: N69M
reading: -0.61
//
variant string: V49I
reading: -0.041
//
variant string: L65W
reading: -0.901
//
variant string: N27L
reading: -0.383
//
variant string: T66M
reading: -0.054
//
variant string: A5L
reading: -0.921
//
variant string: M43G
reading: 0.02
//
variant string: E78H
reading: -0.026
//
variant string: R51H
reading: -0.848
//
variant string: D52V
reading: -0.575
//
variant string: N27D
reading: -0.272
//
variant string: V64R
reading: -0.298
//
variant string: A56C
reading: -0.271
//
variant string: Q28N
reading: -0.2
//
variant string: N33R
reading: -0.148
//
variant string: Q28A
reading: 0.044
//
variant string: M43I
reading: -0.431
//
variant string: T66G
reading: -0.126
//
variant string: E25R
reading: -0.947
//
variant string: T62Q
reading: -0.201
//
variant string: V23R
reading: -0.027
//
variant string: K47F
reading: -0.138
//
variant string: L44P
reading: -0.867
//
variant string: N33H
reading: -0.023
//
variant string: N33M
reading: -0.143
//
variant string: Q40D
reading: -0.726
//
variant string: V64S
reading: -0.06
//
variant string: H7G
reading: -0.705
//
variant string: I71G
reading: 0.085
//
variant string: D52G
reading: -0.625
//
variant string: D72S
reading: -0.855
//
variant string: E25A
reading: -0.457
//
variant string: D59L
reading: -0.133
//
variant string: E14H
reading: -0.156
//
variant string: A2V
reading: -0.146
//
variant string: E18A
reading: -0.187
//
variant string: E14R
reading: -0.289
//
variant string: Q40T
reading: -0.725
//
variant string: I68Q
reading: -0.806
//
variant string: T58G
reading: -0.104
//
variant string: D24F
reading: -0.621
//
variant string: K67Q
reading: -0.056
//
variant string: N20R
reading: -0.18
//
variant string: K46G
reading: -0.337
//
variant string: T13C
reading: -0.546
//
variant string: N55T
reading: -0.115
//
variant string: K46M
reading: -0.204
//
variant string: I71H
reading: -0.198
//
variant string: V49M
reading: -0.082
//
variant string: E18H
reading: -0.317
//
variant string: I73C
reading: -0.695
//
variant string: T50Q
reading: -0.024
//
variant string: T57A
reading: -0.195
//
variant string: T13P
reading: 0.101
//
variant string: N27V
reading: -0.373
//
variant string: A60Q
reading: -0.021
//
variant string: A5T
reading: -0.774
//
variant string: V64H
reading: 0.132
//
variant string: H7T
reading: -0.175
//
variant string: E78K
reading: -0.025
//
variant string: V31L
reading: 0.087
//
variant string: S36R
reading: -0.449
